target: flag-tagged HIF1α (AA 786-826) / His6-tagged p300 (AA 323-423) complex (Homo sapiens); construct: His6-tagged p300 (AA 323-423); made in house; host or cells: E. coli (pETDuet vector); experiment: HIF1α p300 displacement assay (TR FRET, +CHAPS); type: binding; settings: read-out: IC50 (nM) (HIF1α_p300 Displacement + CHAPS)
Sequence (Q09472 323-423, one chain of several): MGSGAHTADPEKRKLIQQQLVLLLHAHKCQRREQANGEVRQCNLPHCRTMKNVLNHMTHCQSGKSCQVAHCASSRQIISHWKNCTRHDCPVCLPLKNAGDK
Bridge positions count the residues as written; N and C are the ends. Square brackets hold non-standard residues; d marks the D form. Peptide text beside a SMILES is read from it. S5 = C=CCCC[C@](C)(N)C(=O)O; Nle = CCCC[C@H](N)C(=O)O
MEASUREMENT_TYPE: IC50

input: Under flag-tagged HIF1α (AA 786-826) / His6-tagged p300 (AA 323-423) complex (Homo sapiens): report IC50 of CCCC[C@H](NC(=O)[C@H](Cc1ccccc1)NC(=O)[C@@H](NC(=O)[C@H](C)NC(=O)[C@H](CCC(N)=O)NC(=O)[C@H](CC(=O)O)NC(=O)[C@@H](NC(=O)[C@H](Cc1ccccc1)NC(C)=O)[C@@H](C)CC)C(C)C)C(=O)N[C@@]1(C)CCCC=CCCC[C@@](C)(C(=O)N[C@@H](CCCC)C(=O)N[C@@H](C)C(=O)N[C@@H](CC(C)C)C(=O)N[C@@H](CC(C)C)C(N)=O)NC(=O)[C@H]([C@@H](C)CC)NC(=O)[C@H](C(C)C)NC(=O)[C@H](CO)NC1=O [SP-252] (Ac-FIDQAVF[Nle][S5]SVI[S5][Nle]ALL-NH2; staple 9-13) .
output: > 700 nM
